# assayedTarget: MTHFD1 recombinant human enzyme (Homo sapiens, UniProt P11586)
# Sequence (P11586 2-291 limits assumed): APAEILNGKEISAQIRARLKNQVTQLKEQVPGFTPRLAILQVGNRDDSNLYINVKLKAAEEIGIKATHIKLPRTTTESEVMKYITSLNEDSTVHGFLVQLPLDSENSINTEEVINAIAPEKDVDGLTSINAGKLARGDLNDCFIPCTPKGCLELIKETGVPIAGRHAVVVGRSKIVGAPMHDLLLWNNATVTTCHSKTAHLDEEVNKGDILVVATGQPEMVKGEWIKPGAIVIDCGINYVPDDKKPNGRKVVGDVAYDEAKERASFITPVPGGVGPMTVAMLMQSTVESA
# experimentalDetails: MTHFD1 inhibition assay (NAD(P)H-Glo luminescence)
# experimentalSetup: MTHFD1 IC50, recombinant human enzyme 200 nM, NADP, band
pIC50: −log10 of the molar value.
Below, each of the compounds is paired with its reported pIC50 value.
property: pIC50

compound="COC[C@H]1CN(c2cc(Cl)c3c4c(c(=O)oc3c2C)CN(C(=O)c2cc(N(C)C)c(C(=O)NS(=O)(=O)N3CCCCC3)cc2F)CC4)CCN1C [Example 275]" readoutvalue="6.00 to 7.00"
compound="COC[C@H]1CN(c2cc(C)c3c4c(c(=O)oc3c2C)CN(C(=O)c2ccc(C(=O)NS(=O)(=O)N(C)C)c(OC3C5CC6CC(C5)CC3C6)c2F)CC4)CCN1C (some centres unmarked) [Example 90]" readoutvalue="7.00 to 8.00"
compound="COC[C@H]1CN(c2cc(C)c3c4c(c(=O)oc3c2C)CN(C(=O)c2cc(N(C)C)c(C(=O)NS(=O)(=O)N3CCCC3)cc2Cl)CC4)CCN1C [Example 150]" readoutvalue="5.30 to 6.00"
compound="COC[C@H]1CN(c2cc(C)c3c4c(c(=O)oc3c2C)CN(C(=O)c2cc(N(C)C)c(C(=O)NS(=O)(=O)N3CC[C@H](F)C3)cc2F)CC4)CCN1C [Example 254]" readoutvalue="6.00 to 7.00"
compound="COC[C@@H]1CN(c2cc(C)c3c4c(c(=O)oc3c2C)CN(C(=O)c2ccc(C(=O)NS(=O)(=O)N3CCCC3)c(OC3CCC3)c2)CC4)CCN1C [Example 131]" readoutvalue="6.00 to 7.00"
compound="[2H]C([2H])([2H])Oc1cc(C(=O)N2CCc3c(c(=O)oc4c(C)c(N5CCN(C)[C@@H](COC)C5)cc(C)c34)C2)c(F)cc1C(=O)NS(=O)(=O)N1CC2CC2C1 (some centres unmarked) [Example 251]" readoutvalue="6.00 to 7.00"
compound="COC[C@H]1CN(c2ccc3c4c(c(=O)oc3c2C)CN(C(=O)c2ccc(C(=O)NS(=O)(=O)N3CCCC3)c(OC3CCC3)c2F)CC4)CCN1C1CC1 [Example 173]" readoutvalue="5.30 to 6.00"
compound="COC[C@H]1CN(c2cc(C)c3c4c(c(=O)oc3c2C)CN(C(=O)c2ccc(C(=O)NS(=O)(=O)C3(C)CC3)c(N3CC5CC5C3)c2)CC4)CCN1C (some centres unmarked) [Example 46]" readoutvalue="7.00 to 8.00"
compound="COC[C@H]1CN(c2cc(C)c3c4c(c(=O)oc3c2C)CN(C(=O)c2cc(N(C)C)c(C(=O)NS(=O)(=O)N3CCCC3)cc2C(F)(F)F)CC4)CCN1C [Example 152]" readoutvalue="< 5.30"
compound="COC[C@H]1CN(c2cc(C)c3c4c(c(=O)oc3c2C)CN(C(=O)c2cc(OC3CCCC3)c(C(=O)NS(=O)(=O)C3(C)CC3)c(C(F)(F)F)c2)CC4)CCN1C [Example 128]" readoutvalue="5.30 to 6.00"
compound="CCOc1c(C(=O)NS(=O)(=O)N2C3CCC2CC3)ccc(C(=O)N2CCc3c(c(=O)oc4c(Cl)c(N5CCN(C)[C@@H](COC)C5)ccc34)C2)c1F [Example 209]" readoutvalue="7.00 to 8.00"

* * *

Below, each of the compounds is paired with its reported IC50 value.
# assayedTarget: MTHFD1 recombinant human enzyme (Homo sapiens, UniProt P11586)
# experimentalDetails: MTHFD1 inhibition assay (NAD(P)H-Glo luminescence)
# experimentalSetup: MTHFD1 IC50, recombinant human enzyme 200 nM, NADP, band
property: IC50

compound=COC[C@H]1CN(c2ccc3c4c(c(=O)oc3c2C)CN(C(=O)c2ccc(C(=O)NS(=O)(=O)N(C)C(C)C)c(N3CCCC3)c2)CC4)CCN1C readoutvalue="10 to 100 nM"
compound=COC[C@H]1CN(c2cc(C)c3c4c(c(=O)oc3c2C)CN(C(=O)c2cc(OC3CCCC3)c(C(=O)NS(=O)(=O)N3CCCC3)c(C(F)(F)F)c2)CC4)CCN1C readoutvalue="1000 to 5000 nM"
compound=COC[C@H]1CN(c2cc(C)c3c4c(c(=O)oc3c2C)CN(C(=O)c2ccc(C(=O)NS(=O)(=O)C3(C)CC3)c(N3CCC(C)(C)C3)c2)CC4)CCN1C readoutvalue="10 to 100 nM"
compound=COC[C@H]1CN(c2ccc3c4c(c(=O)oc3c2Cl)CN(C(=O)c2ccc(C(=O)NS(=O)(=O)C3(C)CC3)c(OC3CCC3)c2)CC4)CCN1C readoutvalue="10 to 100 nM"
compound="COC[C@H]1CN(c2ccc3c4c(c(=O)oc3c2C)CN(C(=O)c2cc(N3CC5CC5C3)c(C(=O)NS(=O)(=O)C3(C)CC3)c(C(F)(F)F)c2)CC4)CCN1C (stereo partly drawn)" readoutvalue="> 5000 nM"
compound=COC[C@H]1CN(c2ccc3c4c(c(=O)oc3c2Cl)CN(C(=O)c2ccc(C(=O)NS(=O)(=O)N3CCCC3)c(OC3CCCC3)c2F)CC4)CCN1C readoutvalue="1 to 10 nM"

* * *

# assayedTarget: MTHFD1 recombinant human enzyme (Homo sapiens)
# experimentalDetails: MTHFD1 inhibition assay (NAD(P)H-Glo luminescence)
# experimentalSetup: MTHFD1 IC50, recombinant human enzyme 200 nM, NADP, band
property: IC50

compound="COC[C@H]1CN(c2cc(C)c3c4c(c(=O)oc3c2C)CN(C(=O)c2ccc(C(=O)NS(=O)(=O)N(C)C)c(OC3CCC3)c2C)CC4)CCN1C [Example 179]" assayedtarget="MTHFD1 recombinant human enzyme (Homo sapiens)" readoutvalue="100 to 1000 nM"
compound="COC[C@H]1CN(c2cc(C)c3c4c(c(=O)oc3c2C)CN(C(=O)c2cc(N(C)C)c(C(=O)NS(=O)(=O)N3C5CCC3CC5)cc2F)CC4)CCN1C [Example 255]" assayedtarget="MTHFD1 recombinant human enzyme (Homo sapiens)" readoutvalue="1000 to 5000 nM"
compound="CCOc1c(C(=O)NS(=O)(=O)N2C3CCCC2CC3)ccc(C(=O)N2CCc3c(c(=O)oc4c(C)c(N5CCN(C)[C@@H](COC)C5)ccc34)C2)c1F [Example 236]" assayedtarget="MTHFD1 recombinant human enzyme (Homo sapiens)" readoutvalue="10 to 100 nM"
compound="COC[C@H]1CN(c2cc(C)c3c4c(c(=O)oc3c2C)CN(C(=O)c2ccc(C(=O)NS(=O)(=O)C3(C)CC3)c(N3C5CCC3CC5)c2)CC4)CCN1C [Example 48]" assayedtarget="MTHFD1 recombinant human enzyme (Homo sapiens)" readoutvalue="1 to 10 nM"
compound="COC[C@H]1CN(c2cc(C)c3c4c(c(=O)oc3c2C)CN(C(=O)c2ccc(C(=O)NS(=O)(=O)N3CCCC3)c(N3CC5CC5C3)c2F)CC4)CCN1C (some centres unmarked) [Example 95]" assayedtarget="MTHFD1 recombinant human enzyme (Homo sapiens)" readoutvalue="100 to 1000 nM"
compound="COC[C@H]1CN(c2cc(C)c3c4c(c(=O)oc3c2C)CN(C(=O)c2ccc(C(=O)NS(=O)(=O)N(C)C)c(OC3C[C@@H]5C[C@@H]5C3)c2)CC4)CCN1C (mixture of isomers) [Example 108]" assayedtarget="MTHFD1 recombinant human enzyme (Homo sapiens)" readoutvalue="10 to 100 nM"
compound="CCOc1cc(C(=O)N2CCc3c(c(=O)oc4c(C)c(N5CCN(C)[C@@H](COC)C5)cc(C)c34)C2)c(F)cc1C(=O)NS(=O)(=O)N(C1CC1)C1CC1 [Example 216]" assayedtarget="MTHFD1 recombinant human enzyme (Homo sapiens)" readoutvalue="100 to 1000 nM"
compound="COC[C@H]1CN(c2cc(C)c3c4c(c(=O)oc3c2C)CN(C(=O)c2cc(N(C)C)c(C(=O)NS(=O)(=O)N3CC[C@@H](F)C3)cc2F)CC4)CCN1C [Example 314]" assayedtarget="MTHFD1 recombinant human enzyme (Homo sapiens)" readoutvalue="100 to 1000 nM"
compound="COC[C@H]1CN(c2cc(C)c3c4c(c(=O)oc3c2C)CN(C(=O)c2cc(N(C)C)c(C(=O)NS(=O)(=O)N3CC5CC5C3)cc2F)CC4)CCN1C (some centres unmarked) [Example 315]" assayedtarget="MTHFD1 recombinant human enzyme (Homo sapiens)" readoutvalue="100 to 1000 nM"
compound="COC[C@H]1CN(c2ccc3c4c(c(=O)oc3c2C)CN(C(=O)c2ccc(C(=O)NS(=O)(=O)C3(C)CC3)c(OC3CCCC3)c2F)CC4)CCN1C [Example 9]" assayedtarget="MTHFD1 recombinant human enzyme (Homo sapiens)" readoutvalue="10 to 100 nM"
compound="COC[C@H]1CN(c2cc(C)c3c4c(c(=O)oc3c2C)CN(C(=O)c2ccc(C(=O)NS(=O)(=O)N(C)C)c(N3CCCC(F)(F)C3)c2)CC4)CCN1C [Example 77]" assayedtarget="MTHFD1 recombinant human enzyme (Homo sapiens)" readoutvalue="1 to 10 nM"
